Taken from ChEMBL document CHEMBL3045820.

Target: UniProt:Q9BY41
Sequence (Q9BY41 whole entry): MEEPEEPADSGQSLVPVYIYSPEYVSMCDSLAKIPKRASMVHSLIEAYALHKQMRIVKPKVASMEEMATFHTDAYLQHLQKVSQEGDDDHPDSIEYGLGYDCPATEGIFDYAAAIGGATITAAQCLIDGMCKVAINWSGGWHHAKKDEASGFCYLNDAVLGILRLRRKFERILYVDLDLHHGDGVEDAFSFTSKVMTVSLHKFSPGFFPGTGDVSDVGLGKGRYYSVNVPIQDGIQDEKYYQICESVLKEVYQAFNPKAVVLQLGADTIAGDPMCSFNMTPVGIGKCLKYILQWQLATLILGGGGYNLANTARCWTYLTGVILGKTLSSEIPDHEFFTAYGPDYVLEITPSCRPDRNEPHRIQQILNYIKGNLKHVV
ASSAY ENDPOINT: pIC50
Numbers only, as −log10 of the molar value.

[ask] Give the measured pIC50 of COc1cc(C(=O)NN)ccc1COc1ccc(Cl)c(C)c1 .
[reply] 5.80
